tested on: OVCAR-5 ovarian; assay: NCI tumour cell line growth inhibition, 48 h; in the data active = GI50 below about 0.43 µM; inactive = the rest
I would appreciate it if you answered using one of these outcomes: True for active, False for inactive

Asked: Returns: the outcome recorded for Cn1ncnc1[C@@H]1c2n[nH]c(=O)c3cc(F)cc(c23)N[C@H]1c1ccc(F)cc1 in this assay.
Given back: False

Asked: Returns: the outcome recorded for COc1cc2cc(NCc3cccc(Cl)c3)nc(C)c2cc1OC in this assay.
Given back: False

Asked: Returns: the outcome recorded for Cn1cc(C2=C(c3ccsc3)C(=O)NC2=O)c2ccccc21 in this assay.
Given back: False

Asked: Returns: the outcome recorded for CC1(C)N=C(N)N=C(N)N1c1ccc(OCCCNC(=O)Nc2ccc(S(=O)(=O)F)cc2)c(Cl)c1 in this assay.
Given back: True

Asked: Returns: the outcome recorded for O=c1[nH]c2ccccc2n1C1CCNCC1 in this assay.
Given back: False

Asked: Returns: the outcome recorded for CCN(Cc1ccc(OC)cc1)c1ccc(CO)c(Cl)c1 in this assay.
Given back: True

Asked: Returns: the outcome recorded for CN1C(=O)C(c2c[nH]c3ccccc23)=C(c2c[nH]c3ccccc23)C1=O in this assay.
Given back: False
